Data provenance is the kinase profiling compilation of Christmann-Franck et al. (2016).

# assay-system: MAPKAPK2 (human)
# protocol-notes: radiometric filter-binding kinase assay
# run-parameters: compound 100.0 µM
quantity-name: residual activity (%)
Express your answer in %, writing the number without its unit.

Before answering, review these 3 worked examples.
COC(=O)/C=C/C(=O)OC 86
Cc1cc(N=Nc2cc(S(=O)(=O)O)c(C)cc2C)c(N)cc1O 107
Cc1ccc2c(c1)C(=O)[C@@]1(O)CCN(c3ccccc3)C1=N2 80

Turning now to a further record.
Q) For the compound N#Cc1c(O)c2c(-c3ccc(-c4ccccc4O)cc3)csc2[nH]c1=O , give its reported residual activity.
A) 30

====

# assay-system: BTK (human) (UniProt Q06187)
# Sequence (Q06187 whole entry, looked up): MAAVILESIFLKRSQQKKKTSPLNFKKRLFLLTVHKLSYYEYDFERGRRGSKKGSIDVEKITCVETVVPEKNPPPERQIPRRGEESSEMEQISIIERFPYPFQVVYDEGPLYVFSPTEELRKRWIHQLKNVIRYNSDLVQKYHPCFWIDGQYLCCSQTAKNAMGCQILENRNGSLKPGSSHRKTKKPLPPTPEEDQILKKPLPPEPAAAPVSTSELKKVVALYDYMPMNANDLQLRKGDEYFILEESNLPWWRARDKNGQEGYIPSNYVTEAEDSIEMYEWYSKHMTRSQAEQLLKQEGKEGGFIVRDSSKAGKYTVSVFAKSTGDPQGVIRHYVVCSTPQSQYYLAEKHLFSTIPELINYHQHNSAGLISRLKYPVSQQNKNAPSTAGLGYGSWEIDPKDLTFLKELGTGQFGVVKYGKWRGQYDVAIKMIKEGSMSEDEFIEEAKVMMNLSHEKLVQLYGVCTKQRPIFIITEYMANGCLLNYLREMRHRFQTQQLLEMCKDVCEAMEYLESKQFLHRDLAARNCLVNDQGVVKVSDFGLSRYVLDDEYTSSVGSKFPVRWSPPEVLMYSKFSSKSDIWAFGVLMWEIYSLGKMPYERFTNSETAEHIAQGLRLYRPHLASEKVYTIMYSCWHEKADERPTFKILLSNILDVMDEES
# protocol-notes: radiometric filter-binding kinase assay
# run-parameters: compound 0.1 µM
# maps each entry to its residual activity
I only need the number, in %, no unit after it.

Example results:
molecule	readout-units	residual activity
CN1CCN(CCOc2cc(OC3CCOCC3)c3c(Nc4c(Cl)ccc5c4OCO5)ncnc3c2)CC1	%	57
CNC(=O)C1[C@H]2O[C@@](C)([C@@H]1N)n1c3ccccc3c3c4c(c5c6ccccc6n2c5c31)C(=O)NC4 (some centres undefined)	%	11
Cn1c(=O)c2c(ncn2C)n(C)c1=O	%	79
Cc1ccc(-c2ccc3c(ccc4sc5c(c43)NC[C@@H](C)NC5=O)n2)cn1	%	120
O=C(O)c1ccc(-c2c[nH]c3ncc(-c4ccccc4)cc23)cc1C1CCCC1	%	89

Now let's try a different one.
Q) Under BTK (human) (UniProt Q06187), report residual activity for COc1cc(O)c2c(c1)/C=C/C[C@H](O)[C@H](O)C(=O)/C=C\C[C@H](C)OC2=O
A) 90

====

Form field: residual activity (one value per entry).
# assay-system: MAPKAPK2 (human)
# protocol-notes: radiometric filter-binding kinase assay
# run-parameters: compound 0.1 µM
Write the answer as a number in %, unit excluded.

Q) Output residual activity of NC(=O)c1cc(-c2ccnc(NC3CCCCC3)c2)nc(N2CCNCC2)c1
A) 99

Q) Annotate the compound Cc1cc(NC(=O)c2cccc(NC(=O)/C=C/CN(C)C)c2)ccc1Nc1nccc(-c2cccnc2)n1 with its measured residual activity.
A) 102

====

# assay-system: CHEK2 (human)
# protocol-notes: radiometric filter-binding kinase assay
# run-parameters: compound 1.0 µM
Binary classification by residual activity, with 90% as an inclusive lower bound for class 1; all other cases are class 0.

Use the examples below as a reference point.
compound	assay-system	group-label
NC(=O)c1ccc(-c2ccc(Oc3cncc4sc(-c5nn[nH]n5)cc34)cc2)cc1	CHEK2 (human)	class 1
O=C(NOCC(O)CO)c1ccc(F)c(F)c1Nc1ccc(I)cc1Cl (stereo not given)	CHEK2 (human)	class 1
NC(=O)c1cc(-c2ccnc(NC3CCCCC3)c2)nc(N2CCNCC2)c1	CHEK2 (human)	class 1
COc1cc(O)c2c(c1)/C=C/C[C@H](O)[C@H](O)C(=O)/C=C\C[C@H](C)OC2=O	CHEK2 (human)	class 0
c1ccc2c(-c3cnn4cc(-c5ccc(N6CCNCC6)cc5)cnc34)ccnc2c1	CHEK2 (human)	class 1

Q) Is it the case that COc1ccc(-n2ncc3cnc(Nc4cc(OC)c(OC)c(OCCCN5CCN(C)CC5)c4)nc32)cc1 has residual activity reaching or exceeding 90%?
A) class 0

====

Attribute: residual activity
# assay-system: CSK (human)
# protocol-notes: radiometric filter-binding kinase assay
# run-parameters: compound 1.0 µM
State just the number; it will be interpreted in %.

molecule	assay-system	recorded-value
CC1=C(CO)C(=O)O[C@@H]([C@@H](C)[C@H]2CC[C@H]3[C@@H]4C[C@H]5O[C@]56[C@@H](O)C=CC(=O)[C@]6(C)C4CC[C@]23C)C1 (some centres not stated)	CSK (human)	109
Oc1ccc2ccccc2c1SSc1c(O)ccc2ccccc12	CSK (human)	102

Q) Return the recorded residual activity value; entry: O=c1c(O)c(-c2ccc(O)c(O)c2)oc2cc(O)c(O)c(O)c12
A) 125

Q) Give residual activity for the following molecule: Oc1ccc(/C=C/c2cc(O)cc(O)c2)cc1
A) 102

Q) For the molecule CNC(=O)C1[C@H]2O[C@@](C)([C@@H]1N)n1c3ccccc3c3c4c(c5c6ccccc6n2c5c31)C(=O)NC4 (some centres not stated) , give its reported residual activity.
A) 20

Q) Give the reported value of residual activity for this record: O=C1NC(=S)N[C@@H]1Cc1c[nH]c2ccccc12
A) 101

====

# assay-system: TBK1 (human) (UniProt Q9UHD2)
# Sequence (Q9UHD2 whole entry, looked up): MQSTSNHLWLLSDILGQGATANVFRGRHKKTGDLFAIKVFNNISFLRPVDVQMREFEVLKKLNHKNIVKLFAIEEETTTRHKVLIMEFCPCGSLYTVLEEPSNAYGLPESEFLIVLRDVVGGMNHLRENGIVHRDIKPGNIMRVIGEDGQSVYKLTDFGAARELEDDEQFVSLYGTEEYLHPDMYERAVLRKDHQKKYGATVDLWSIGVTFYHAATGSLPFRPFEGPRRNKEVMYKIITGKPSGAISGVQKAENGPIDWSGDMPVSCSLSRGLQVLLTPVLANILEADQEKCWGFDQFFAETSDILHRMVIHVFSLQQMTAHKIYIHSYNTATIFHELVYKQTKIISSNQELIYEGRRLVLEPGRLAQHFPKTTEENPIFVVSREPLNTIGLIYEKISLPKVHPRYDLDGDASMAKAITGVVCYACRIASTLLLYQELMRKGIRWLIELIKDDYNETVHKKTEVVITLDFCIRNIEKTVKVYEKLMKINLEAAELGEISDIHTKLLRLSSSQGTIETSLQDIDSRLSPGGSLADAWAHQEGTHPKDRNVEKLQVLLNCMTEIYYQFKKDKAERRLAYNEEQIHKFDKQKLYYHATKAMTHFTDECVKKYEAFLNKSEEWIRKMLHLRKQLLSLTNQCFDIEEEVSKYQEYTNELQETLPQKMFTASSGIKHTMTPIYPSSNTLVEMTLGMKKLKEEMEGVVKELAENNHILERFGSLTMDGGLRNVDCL
# protocol-notes: radiometric filter-binding kinase assay
# run-parameters: compound 1.0 µM
Just a reminder that ties go to n: only residual activity strictly below 90% counts as y.

Study these solved cases before continuing.
molecule	group-label
FC(F)(F)c1ccc(-c2ccc(Oc3cncc4sc(-c5nn[nH]n5)cc34)cc2)cc1	n
NC1(c2ccc(-c3nc4ccn5c(=O)[nH]nc5c4cc3-c3ccccc3)cc2)CCC1	n
NC(=O)c1c(NC(=O)C2CC2)sc2c1CCCC2	n
O=c1c(O)c(-c2ccc(O)c(O)c2)oc2cc(O)c(O)c(O)c12	y
CNC(=O)C1[C@H]2O[C@@](C)([C@@H]1N)n1c3ccccc3c3c4c(c5c6ccccc6n2c5c31)C(=O)NC4 (stereo partly specified)	y
O=C(NOCC(O)CO)c1ccc(F)c(F)c1Nc1ccc(I)cc1Cl (stereo unspecified)	n
Cc1ccc(-c2ccc3c(ccc4sc5c(c43)NC[C@@H](C)NC5=O)n2)cn1	y
NC(=O)c1ccc(-c2ccc(Oc3cncc4sc(-c5nn[nH]n5)cc34)cc2)cc1	y

Now consider the entry below.
Q) Just wondering, is residual activity of CN1C(=O)[C@@H](Cc2c[nH]c3ccccc23)NC1=S below 90%?
A) y

====

# assay-system: AURKA (human)
# protocol-notes: radiometric filter-binding kinase assay
# run-parameters: compound 1.0 µM
Given measured residual activity, output rule met if it is greater than or equal to 60% and rule not met if not.

Q) Threshold query (residual activity >= 60%) on O=C(NCCCNc1nc(Nc2cccc(CN3CCOCC3)c2)ncc1C1CC1)C1CCC1
A) rule not met

Q) I'd appreciate it if you could say whether C=CC(=O)N1CCC[C@@H](n2nc(-c3ccc(Oc4ccccc4)cc3)c3c(N)ncnc32)C1 has residual activity at least equal to 60%.
A) rule not met

Q) Reported residual activity reaches at least 60% for CC(C)(C#N)c1ccc(N2C(=O)OCc3cnc4ccc(-c5cnc6ccccc6c5)cc4c32)cc1 ?
A) rule met

Q) Does residual activity meet or surpass 60% for Cc1cccc(-c2nn(C(=S)Nc3ccccc3)cc2-c2ccnc3ccccc23)n1 ?
A) rule met

Q) Is reported residual activity greater than or equal to 60% here: O=C(Nc1ccccc1-c1cn2c(CN3CCNCC3)csc2n1)c1cnc2ccccc2n1
A) rule met

====

# assay-system: MINK1 (human) (UniProt Q8N4C8)
# Sequence (Q8N4C8 whole entry, looked up): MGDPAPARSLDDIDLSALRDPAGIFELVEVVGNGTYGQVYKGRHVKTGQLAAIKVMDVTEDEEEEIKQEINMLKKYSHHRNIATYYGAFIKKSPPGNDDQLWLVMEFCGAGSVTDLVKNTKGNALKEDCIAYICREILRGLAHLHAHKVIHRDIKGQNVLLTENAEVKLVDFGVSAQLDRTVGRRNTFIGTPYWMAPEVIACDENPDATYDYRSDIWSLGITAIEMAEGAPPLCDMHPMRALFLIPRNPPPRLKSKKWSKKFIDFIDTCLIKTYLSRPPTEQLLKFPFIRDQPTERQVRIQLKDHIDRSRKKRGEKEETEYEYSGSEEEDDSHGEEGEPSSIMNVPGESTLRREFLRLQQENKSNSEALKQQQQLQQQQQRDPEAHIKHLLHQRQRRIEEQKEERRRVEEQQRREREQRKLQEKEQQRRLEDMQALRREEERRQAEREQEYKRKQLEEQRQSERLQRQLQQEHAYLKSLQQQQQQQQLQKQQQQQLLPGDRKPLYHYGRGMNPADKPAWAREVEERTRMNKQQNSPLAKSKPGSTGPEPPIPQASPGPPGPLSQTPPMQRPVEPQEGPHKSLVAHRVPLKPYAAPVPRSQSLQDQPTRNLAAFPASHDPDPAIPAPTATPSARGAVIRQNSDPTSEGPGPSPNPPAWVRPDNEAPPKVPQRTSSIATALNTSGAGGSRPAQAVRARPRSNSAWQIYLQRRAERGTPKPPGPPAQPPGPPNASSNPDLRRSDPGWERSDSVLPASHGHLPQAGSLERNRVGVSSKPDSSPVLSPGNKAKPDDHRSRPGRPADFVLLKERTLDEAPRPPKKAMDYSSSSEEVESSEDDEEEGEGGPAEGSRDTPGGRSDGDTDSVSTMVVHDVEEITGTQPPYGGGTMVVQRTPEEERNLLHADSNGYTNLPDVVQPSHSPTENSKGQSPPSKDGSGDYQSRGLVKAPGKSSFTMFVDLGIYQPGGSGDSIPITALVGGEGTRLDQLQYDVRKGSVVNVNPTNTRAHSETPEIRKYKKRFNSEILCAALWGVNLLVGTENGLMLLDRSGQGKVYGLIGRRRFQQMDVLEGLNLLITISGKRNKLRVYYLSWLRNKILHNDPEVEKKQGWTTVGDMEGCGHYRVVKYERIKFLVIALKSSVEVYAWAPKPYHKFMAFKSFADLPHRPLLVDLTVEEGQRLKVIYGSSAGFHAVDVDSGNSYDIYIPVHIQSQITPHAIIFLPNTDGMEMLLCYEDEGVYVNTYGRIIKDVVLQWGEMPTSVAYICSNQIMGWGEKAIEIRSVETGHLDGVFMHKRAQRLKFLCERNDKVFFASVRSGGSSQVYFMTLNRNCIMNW
# protocol-notes: radiometric filter-binding kinase assay
# run-parameters: compound 1.0 µM
quantity-name: residual activity (%)
Answer format: numeric, % implied, no suffix.

Recorded residual activity, per entry:
molecule	readout-units	residual activity
O=C(NCCCNc1nc(Nc2cccc(CN3CCOCC3)c2)ncc1C1CC1)C1CCC1	%	103
NC1(c2ccc(-c3nc4ccn5c(=O)[nH]nc5c4cc3-c3ccccc3)cc2)CCC1	%	86
O=C(Nc1nc2cc(C(F)(F)F)cc(NC3CC3)n2n1)c1cccnc1	%	120
NC(=O)c1cc(-c2ccnc(NC3CCCCC3)c2)nc(N2CCNCC2)c1	%	13
CNC(=O)C1[C@H]2O[C@@](C)([C@@H]1N)n1c3ccccc3c3c4c(c5c6ccccc6n2c5c31)C(=O)NC4 (some centres undefined)	%	2
C=CC(=O)N1CCC[C@@H](n2nc(-c3ccc(Oc4ccccc4)cc3)c3c(N)ncnc32)C1	%	91
O=C(NOCC(O)CO)c1ccc(F)c(F)c1Nc1ccc(I)cc1Cl (centres undefined)	%	119
COc1cc(O)c2c(c1)[C@H]1OC1C[C@H](O)[C@H](O)C(=O)/C=C\C[C@H](C)OC2=O (some centres undefined)	%	102
O=C(NOC[C@H](O)CO)c1ccc(F)c(F)c1Nc1ccc(I)cc1Cl	%	117
NC(=O)c1ccc(-c2ccc(Oc3cncc4sc(-c5nn[nH]n5)cc34)cc2)cc1	%	84

Q) Give residual activity for CNc1nc(-c2ccc3c(N)n[nH]c3c2)cc(N2C[C@@H](C(=O)NC3CCCCC3)CC[C@H]2C)n1
A) 89

Q) Look up and state reported residual activity for Cc1ccc(=O)n(-c2ccccc2)c1
A) 106

Q) # return recorded residual activity for input C=C1C(=O)OC2C1CC/C(C)=C/CCC1(C)OC21 (centres undefined)
A) 108

Q) Identify residual activity associated with the molecule COc1ccc(N(C(=O)Nc2c(C)cccc2C)c2cc(Nc3ccc(N4CCN(C)CC4)cc3)ncn2)c(OC)c1
A) 18

====

# assay-system: MAP2K1 (human)
# protocol-notes: radiometric filter-binding kinase assay
# run-parameters: compound 0.1 µM
quantity-name: residual activity (%)
Record the value in %, omitting the unit from your answer.

compound	quantity-name	recorded-value
CNC(=O)C1[C@H]2O[C@@](C)([C@@H]1N)n1c3ccccc3c3c4c(c5c6ccccc6n2c5c31)C(=O)NC4 (some centres undefined)	residual activity	0
NC(=O)Nc1ccc2c(c1)/C(=C/c1cc(-c3cccnc3)c[nH]1)C(=O)N2	residual activity	8
NC(=O)c1cc(-c2ccnc(NC3CCCCC3)c2)nc(N2CCNCC2)c1	residual activity	86

Q) Read off the recorded residual activity for c1ccc2c(-c3cnn4cc(-c5ccc(N6CCNCC6)cc5)cnc34)ccnc2c1
A) 98

Q) Please supply the value of reported residual activity for the item CN1CCN(CCOc2cc(OC3CCOCC3)c3c(Nc4c(Cl)ccc5c4OCO5)ncnc3c2)CC1
A) 97

Q) Fill in residual activity for record COc1ccc2c(c1)c1c3c(c4c5ccccc5n(C)c4c1n2CC(O)CN(C)C)C(=O)NC3=O (centres undefined)
A) 82

Q) Please look at this compound and report its residual activity: O=C(Nc1nc2cc(C(F)(F)F)cc(NC3CC3)n2n1)c1cccnc1
A) 76

Q) Retrieve residual activity measured for Cc1ccc(-c2ccc3c(ccc4sc5c(c43)NC[C@@H](C)NC5=O)n2)cn1 and print it.
A) 101

Q) Item CNc1nc(-c2ccc3c(N)n[nH]c3c2)cc(N2C[C@@H](C(=O)NC3CCCCC3)CC[C@H]2C)n1 : provide residual activity
A) 101
